Here the recorded recombinant UMI read abundance (log10) is given for each entry.
assay: recombinant UMI read abundance after kanamycin selection (control-corrected) (log10(CPM+1)); higher = more efficient recombination; extreme values may be limits of the assay; sequences stand for … in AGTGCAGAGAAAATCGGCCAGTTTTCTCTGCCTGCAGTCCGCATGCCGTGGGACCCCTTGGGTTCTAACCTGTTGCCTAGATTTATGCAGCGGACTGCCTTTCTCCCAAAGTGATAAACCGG…AGGTTGGTTTCACT; site = the 11-nt donor;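 also: IS621 bridge recombinase in Escherichia coli cells against a fixed T5 target plasmid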

| sequence.text | recombinant UMI read abundance (log10) |
| --- | --- |
| CGATCGCCATGGACCGGTTTTCCCGGTAATCCGTATTTGCT (site CGATCATCTAG) | 0 |
| GTTACACCATGGACCGGTTTTCCCGGTAATCCGTATTTGAA (site GTTACACCTTT) | 0.0186 |
| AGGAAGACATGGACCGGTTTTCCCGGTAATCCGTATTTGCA (site AGGAAGGCTTC) | 0 |
| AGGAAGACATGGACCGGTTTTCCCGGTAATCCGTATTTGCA (site AGGAACACTGG) | 0.014 |
| ACCGCTACATGGACCGGTTTTCCCGGTAATCCGTATTTGCC (site ACCGCTACTGG) | 1.75 |

Origin of the recorded values: the supplement of paper PMC11208160
